Source of measurements: patent US11999715B2

# system: ASK1 T838 auto phosphorylation (Homo sapiens)
# test: ASK1 (AUTO PHOS T838) assay, MSD format, in HEK-293T cells transfected with ASK1-V5
# Assay type: cell-based
# measurementContext: ASK1 T838 auto phosphorylation in HEK-293T cells, 1 hr compound incubation; class symbols
pIC50: −log10 of the molar value.
propertyLabel: pIC50

# count of solved cases: 4
molecule: COc1nn(Cc2ccccc2)cc1C(=O)Nc1cccc(-c2nncn2C(C)C)n1 [Example 8]
valueObserved: ≥ 6.00
//
molecule: COCc1nn(C)cc1C(=O)Nc1cccc(-c2nncn2C(C)C)n1 [Example 4]
valueObserved: 5.00 to 6.00
//
molecule: COc1nn(C)cc1C(=O)Nc1cccc(-c2nncn2[C@@H]2CCC2(F)F)n1 (single isomer, unassigned) [Example 32]
valueObserved: ≥ 6.00
//
molecule: COc1nn(C)cc1C(=O)Nc1cccc(-c2nncn2[C@@H](C)C(F)(F)F)n1 [Example 12]
valueObserved: ≥ 6.00

Ask: Tell me its pIC50 given COc1nn(CC(C)C)cc1C(=O)Nc1cccc(-c2nncn2C(C)C(F)(F)F)n1 (centres unmarked) [Example 43] as the entry.
Result: ≥ 6.00

Ask: Tell me its pIC50 given COc1nn(CC(F)(F)F)cc1C(=O)Nc1cccc(-c2cncn2C(C)C)n1 [Example 106] as the entry.
Result: ≥ 6.00

Ask: Tell me its pIC50 given COc1nn(C)cc1C(=O)Nc1cccc(-c2cncn2C2CC2)c1 [Example 101] as the entry.
Result: < 5.00

Ask: Tell me its pIC50 given Cc1cncc(-n2cc(C(=O)Nc3cccc(-c4nncn4C(C)C)n3)c(C(F)F)n2)c1 [Example 75] as the entry.
Result: ≥ 6.00

* * *

# Lookup of reported IC50 keyed by entry
# system: ASK1/MAP3K5 (Homo sapiens, UniProt Q99683)
# Sequence (Q99683 1-1374): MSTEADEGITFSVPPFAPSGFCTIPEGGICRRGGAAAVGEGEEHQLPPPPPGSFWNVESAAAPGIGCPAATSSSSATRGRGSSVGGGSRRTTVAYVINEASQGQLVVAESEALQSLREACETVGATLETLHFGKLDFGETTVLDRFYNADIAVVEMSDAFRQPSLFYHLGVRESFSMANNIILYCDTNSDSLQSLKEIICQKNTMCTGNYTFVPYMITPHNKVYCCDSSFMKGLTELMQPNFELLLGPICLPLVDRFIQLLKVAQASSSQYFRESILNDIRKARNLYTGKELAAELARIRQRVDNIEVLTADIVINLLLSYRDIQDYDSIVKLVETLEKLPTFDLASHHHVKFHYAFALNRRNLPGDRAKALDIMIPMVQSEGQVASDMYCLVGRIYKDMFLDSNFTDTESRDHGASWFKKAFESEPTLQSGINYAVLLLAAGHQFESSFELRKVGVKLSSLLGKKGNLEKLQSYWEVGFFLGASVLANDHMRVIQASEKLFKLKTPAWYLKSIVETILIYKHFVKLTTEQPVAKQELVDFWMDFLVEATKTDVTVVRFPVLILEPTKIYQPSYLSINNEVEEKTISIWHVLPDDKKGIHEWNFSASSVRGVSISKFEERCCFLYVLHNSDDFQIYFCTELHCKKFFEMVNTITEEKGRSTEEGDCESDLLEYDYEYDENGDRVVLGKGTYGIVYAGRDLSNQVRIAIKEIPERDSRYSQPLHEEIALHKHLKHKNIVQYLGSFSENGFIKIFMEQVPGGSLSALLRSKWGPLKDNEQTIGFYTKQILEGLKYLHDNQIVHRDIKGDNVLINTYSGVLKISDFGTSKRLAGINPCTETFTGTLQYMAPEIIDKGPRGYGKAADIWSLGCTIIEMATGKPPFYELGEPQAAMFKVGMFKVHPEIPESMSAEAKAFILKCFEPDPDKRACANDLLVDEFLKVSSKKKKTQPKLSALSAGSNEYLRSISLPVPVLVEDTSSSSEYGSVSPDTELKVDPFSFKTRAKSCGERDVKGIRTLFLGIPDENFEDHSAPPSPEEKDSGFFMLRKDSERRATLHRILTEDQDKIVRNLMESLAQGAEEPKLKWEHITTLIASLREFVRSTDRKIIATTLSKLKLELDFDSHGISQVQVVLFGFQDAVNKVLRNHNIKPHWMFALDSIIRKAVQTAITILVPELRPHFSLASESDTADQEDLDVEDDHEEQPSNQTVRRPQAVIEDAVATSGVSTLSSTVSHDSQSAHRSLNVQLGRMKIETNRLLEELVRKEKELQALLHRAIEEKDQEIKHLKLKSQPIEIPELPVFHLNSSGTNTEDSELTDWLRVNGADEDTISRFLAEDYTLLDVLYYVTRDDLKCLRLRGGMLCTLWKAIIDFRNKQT
# test: ASK1/MAP3K5 kinase assay by Reaction Biology Corp. (headed ASK1 TR-FRET Assay)
# Type: biochemical
# measurementContext: 20 μM myelin basic protein, 10 μM ATP, class given in words

chemicalStructure: COc1nn(C)cc1C(=O)Nc1cccc(-c2nncn2C2(C)COC2)n1
IC50: ≥ 10 µM

// next entry
Ask: Tell me its IC50 given "COc1nn(C)cc1C(=O)Nc1cccc(-c2nncn2C2COC2)n1" as the entry.
Result: ≥ 10 µM
